tested on: E. coli AG100; experiment: microbe, parasite or virus in culture; format: cell-based; details: Escherichia coli, AG100, read-out: MIC E. coli AG100
MIC by entry:

Examples with their reported MIC follow.
>  <COMPOUND>
CS(=O)(=O)N1CCN(C(=O)NC(C(=O)N[C@H]2Cc3cccc(C(=O)O)c3OB2O)c2ccc(P(=O)(O)O)c(Cl)c2)C1=O (stereo partly shown)

>  <MIC>
32 to 64 µg/mL

$$$$
>  <COMPOUND>
CS(=O)(=O)N1CCN(C(=O)NC(C(=O)N[C@H]2Cc3cccc(C(=O)O)c3OB2O)c2ccc(P(=O)(O)O)c(F)c2)C1=O (stereo partly shown)

>  <MIC>
8 to 16 µg/mL

$$$$
>  <COMPOUND>
O=C(O)c1cccc2c1OB(O)[C@@H](NC(=O)[C@H](NC(=O)N1CCN(S(=O)(=O)c3ccc(O)c(O)c3Cl)C1=O)c1ccc(P(=O)(O)O)cc1)C2

>  <MIC>
< 1 µg/mL

$$$$

Measured MIC of CS(=O)(=O)N1CCN(C(=O)N[C@@H](C(=O)N[C@H]2Cc3ccc(F)c(C(=O)O)c3OB2O)c2ccc(P(=O)(O)O)c(F)c2F)C1=O : > 128 µg/mL

MIC in this record for CCN1CCN(C(=O)N[C@@H](C(=O)N[C@H]2Cc3cccc(C(=O)O)c3OB2O)c2ccc(P(=O)(O)O)c(F)c2)C(=O)C1=O (single isomer, unassigned) : 8 to 16 µg/mL

The compound listed as Cn1cccc(C(=O)N[C@H](C(=O)N[C@H]2Cc3cccc(C(=O)O)c3OB2O)c2ccc(P(=O)(O)O)cc2)c1=O (single isomer, unassigned) has a reported MIC of > 128 µg/mL

What the record says about CS(=O)(=O)N1CCN(C(=O)NC(C(=O)N[C@H]2Cc3cccc(C(=O)O)c3OB2O)c2ccc(P(=O)(O)O)c(O)c2)C1=O (stereo partly shown) : MIC is 8 to 16 µg/mL

Lab book: MIC of CS(=O)(=O)N1CCC[C@@H]1C(=O)N[C@@H](C(=O)N[C@H]1Cc2cccc(C(=O)O)c2OB1O)c1ccc(P(=O)(O)O)cc1 noted as > 128 µg/mL

MIC reading for O=C(N[C@@H](C(=O)N[C@H]1Cc2cccc(C(=O)O)c2OB1O)c1ccc(P(=O)(O)O)cc1)c1cnc2ccnn2c1 (single isomer, unassigned) : > 128 µg/mL

Short answer for O=C(N[C@@H](C(=O)N[C@H]1Cc2cccc(C(=O)O)c2OB1O)c1ccc(P(=O)(O)O)cc1)c1cnc2cccn2c1 (single isomer, unassigned) : MIC was > 128 µg/mL

---

Each record here notes measured MIC.
test system: N. gonorrhoeae WHO G; experiment: Liquid broth MIC in Fastidious broth; settings: Neisseria gonorrhoeae, read-out: Minimum Inhibitory Concentration (MIC), N. gonorrhoeae WHO G

>  <MOLECULE>
O=C(O)c1cccc2c1OB(O)[C@@H](NC(=O)[C@@H](NC(=O)N1CCCCC1=O)c1ccc(P(=O)(O)O)cc1)C2

>  <RESULT>
4 to 8 µg/mL

$$$$
>  <MOLECULE>
O=C(O)c1cccc2c1OB(O)[C@@H](NC(=O)[C@@H](NC(=O)c1cnc3sccn3c1=O)c1ccc(P(=O)(O)O)cc1)C2 (single isomer, unassigned)

>  <RESULT>
4 to 8 µg/mL

$$$$
>  <MOLECULE>
CCN1CCN(C(=O)NC(C(=O)N[C@H]2Cc3cccc(C(=O)O)c3OB2O)c2ccc(P(=O)(O)O)c(O)c2)C(=O)C1=O (some centres unmarked)

>  <RESULT>
< 1 µg/mL

$$$$
>  <MOLECULE>
O=C(O)c1cccc2c1OB(O)[C@@H](NC(=O)C(NS(=O)(=O)C1CC1)c1ccc(P(=O)(O)O)cc1)C2 (some centres unmarked)

>  <RESULT>
16 to 32 µg/mL

$$$$

Attention now turns to another entry.
Noted MIC for O=C(NCCN1CCN(C(=O)NC(C(=O)N[C@H]2Cc3ccc(F)c(C(=O)O)c3OB2O)c2cc(F)c(O)c(O)c2Cl)C1=O)c1cccc(O)c1 (some centres unmarked) , tested on N. gonorrhoeae WHO G: 16 to 32 µg/mL

---

Target: PBP3 from Acinetobacter baumannii (ATCC 19606) (Acinetobacter baumannii)
Sequence (A0ABX6CK25 64-610): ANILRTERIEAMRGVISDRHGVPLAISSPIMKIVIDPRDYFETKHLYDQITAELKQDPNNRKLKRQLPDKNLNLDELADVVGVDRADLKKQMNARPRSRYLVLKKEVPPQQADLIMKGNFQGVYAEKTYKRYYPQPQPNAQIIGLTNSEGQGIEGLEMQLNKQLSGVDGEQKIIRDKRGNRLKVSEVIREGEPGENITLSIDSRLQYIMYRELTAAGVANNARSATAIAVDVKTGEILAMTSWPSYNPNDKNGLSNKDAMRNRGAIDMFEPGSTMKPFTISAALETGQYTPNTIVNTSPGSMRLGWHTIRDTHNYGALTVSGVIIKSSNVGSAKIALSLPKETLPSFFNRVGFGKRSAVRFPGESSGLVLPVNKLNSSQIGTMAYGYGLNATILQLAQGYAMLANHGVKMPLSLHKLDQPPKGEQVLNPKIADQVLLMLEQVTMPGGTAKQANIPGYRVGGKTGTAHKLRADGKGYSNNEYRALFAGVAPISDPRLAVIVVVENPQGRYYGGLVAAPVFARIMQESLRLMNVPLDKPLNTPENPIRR
pIC50: −log10 of the molar value.
Recorded pIC50, one value per entry.

Worked examples follow.
>  <COMPOUND>
O=C(NCCN1CCN(C(=O)NC(C(=O)N[C@H]2Cc3ccc(F)c(C(=O)O)c3OB2O)c2cc(F)c(O)c(O)c2Cl)C(=O)C1=O)c1nccs1 (stereo partly drawn) [Example 218]

>  <RESULT>
> 5.00

$$$$
>  <COMPOUND>
O=C(NCCS(=O)(=O)N1CCN(C(=O)N[C@H](C(=O)N[C@H]2Cc3ccc(F)c(C(=O)O)c3OB2O)c2cc(F)c(O)c(O)c2Cl)C1=O)c1nccs1 [Example 263]

>  <RESULT>
4.30 to 5.00

$$$$

// switching to the query compound
So, O=C(O)c1c(F)ccc2c1OB(O)[C@@H](NC(=O)[C@H](NC(=O)N1CCN(Cc3ccc(O)c(O)c3Cl)C(=O)C1=O)c1ccc(P(=O)(O)O)cc1)C2 (single isomer, unassigned) [Example 160] ? Its pIC50 was > 5.00

---

test system: P. aeruginosa ATCC 35151; assay: microbe, parasite or virus in culture; format: cell-based; settings: Pseudomonas aeruginosa, ATCC35151, read-out: Minimum inhibitory concentration, P. aeruginosa ATCC 35151
Listing: MIC of selected compounds

Example results:
>  <COMPOUND>
Nc1cc(CN2CCC(N3CCN(C(=O)N[C@@H](C(=O)N[C@H]4Cc5ccc(F)c(C(=O)O)c5OB4O)c4cc(F)c(O)c(O)c4Cl)C3=O)CC2)ccn1

>  <MIC>
< 1 µg/mL

$$$$
>  <COMPOUND>
O=C(NCCCN1CCN(C(=O)N[C@H](C(=O)N[C@H]2Cc3ccc(F)c(C(=O)O)c3OB2O)c2cc(F)c(O)c(O)c2Cl)C(=O)C1=O)c1cccc(O)c1Cl

>  <MIC>
2 to 4 µg/mL

$$$$
>  <COMPOUND>
O=C(NCCCN1CCN(C(=O)N[C@@H](C(=O)N[C@H]2Cc3ccc(F)c(C(=O)O)c3OB2O)c2cc(F)c(O)c(O)c2Cl)C(=O)C1=O)c1cc(F)c(O)cc1F (single isomer, unassigned)

>  <MIC>
< 1 µg/mL

$$$$
>  <COMPOUND>
O=C(NCCN1CCN(C(=O)N[C@@H](C(=O)N[C@H]2Cc3ccc(F)c(C(=O)O)c3OB2O)c2cc(F)c(O)c(O)c2Cl)C(=O)C1=O)Nc1cccnc1

>  <MIC>
< 1 µg/mL

$$$$
>  <COMPOUND>
O=C(NCCS(=O)(=O)N1CCN(C(=O)N[C@H](C(=O)N[C@H]2Cc3ccc(F)c(C(=O)O)c3OB2O)c2cc(F)c(O)c(O)c2Cl)C1=O)c1nccs1

>  <MIC>
2 to 4 µg/mL

$$$$
>  <COMPOUND>
O=C(NCCCN1CCN(C(=O)NC(C(=O)N[C@H]2Cc3ccc(F)c(C(=O)O)c3OB2O)c2cc(F)c(O)c(O)c2Cl)C(=O)C1=O)Nc1cccc(O)c1 (some centres unmarked)

>  <MIC>
< 1 µg/mL

$$$$

The measured MIC associated with O=C(NCCCN1CCN(C(=O)NC(C(=O)N[C@H]2Cc3ccc(F)c(C(=O)O)c3OB2O)c2cc(F)c(O)c(O)c2Cl)C(=O)C1=O)c1cc(O)ccc1F (some centres unmarked) reads < 1 µg/mL

So, O=C(NCCCN1CCN(C(=O)NC(C(=O)N[C@H]2Cc3ccc(F)c(C(=O)O)c3OB2O)c2cc(F)c(O)c(O)c2Cl)C(=O)C1=O)c1ccncc1 (some centres unmarked) ? Its MIC was < 1 µg/mL
